System Name: human platelet rich plasma (PRP) (Homo sapiens, UniProt P05106+P08514)
Sequence (P08514 32-1039): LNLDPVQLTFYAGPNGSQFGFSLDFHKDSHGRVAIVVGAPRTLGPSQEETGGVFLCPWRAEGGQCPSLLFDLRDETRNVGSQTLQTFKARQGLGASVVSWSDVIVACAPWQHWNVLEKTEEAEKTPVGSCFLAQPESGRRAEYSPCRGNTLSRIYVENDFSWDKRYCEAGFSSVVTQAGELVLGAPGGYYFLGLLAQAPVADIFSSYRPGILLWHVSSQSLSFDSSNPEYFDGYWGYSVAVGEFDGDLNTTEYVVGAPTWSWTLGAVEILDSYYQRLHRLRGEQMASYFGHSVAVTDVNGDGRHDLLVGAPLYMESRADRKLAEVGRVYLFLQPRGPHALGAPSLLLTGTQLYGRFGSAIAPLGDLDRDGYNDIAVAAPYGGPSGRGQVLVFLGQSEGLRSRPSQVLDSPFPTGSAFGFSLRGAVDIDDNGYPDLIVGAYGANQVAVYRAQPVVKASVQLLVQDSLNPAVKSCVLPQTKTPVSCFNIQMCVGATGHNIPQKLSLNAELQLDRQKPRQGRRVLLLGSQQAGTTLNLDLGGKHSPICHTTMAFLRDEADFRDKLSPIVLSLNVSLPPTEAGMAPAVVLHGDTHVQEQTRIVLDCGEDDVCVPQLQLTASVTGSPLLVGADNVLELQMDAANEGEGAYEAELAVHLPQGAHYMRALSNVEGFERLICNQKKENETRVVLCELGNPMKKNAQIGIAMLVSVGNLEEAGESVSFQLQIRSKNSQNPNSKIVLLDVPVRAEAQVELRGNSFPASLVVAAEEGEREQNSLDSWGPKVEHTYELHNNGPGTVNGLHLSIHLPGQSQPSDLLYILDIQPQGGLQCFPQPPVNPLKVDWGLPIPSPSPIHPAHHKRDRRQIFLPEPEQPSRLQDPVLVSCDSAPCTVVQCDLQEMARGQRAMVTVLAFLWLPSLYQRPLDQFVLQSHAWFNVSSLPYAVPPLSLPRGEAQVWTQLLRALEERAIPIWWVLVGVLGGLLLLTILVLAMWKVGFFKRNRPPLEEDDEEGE
Sequence (P05106 27-788): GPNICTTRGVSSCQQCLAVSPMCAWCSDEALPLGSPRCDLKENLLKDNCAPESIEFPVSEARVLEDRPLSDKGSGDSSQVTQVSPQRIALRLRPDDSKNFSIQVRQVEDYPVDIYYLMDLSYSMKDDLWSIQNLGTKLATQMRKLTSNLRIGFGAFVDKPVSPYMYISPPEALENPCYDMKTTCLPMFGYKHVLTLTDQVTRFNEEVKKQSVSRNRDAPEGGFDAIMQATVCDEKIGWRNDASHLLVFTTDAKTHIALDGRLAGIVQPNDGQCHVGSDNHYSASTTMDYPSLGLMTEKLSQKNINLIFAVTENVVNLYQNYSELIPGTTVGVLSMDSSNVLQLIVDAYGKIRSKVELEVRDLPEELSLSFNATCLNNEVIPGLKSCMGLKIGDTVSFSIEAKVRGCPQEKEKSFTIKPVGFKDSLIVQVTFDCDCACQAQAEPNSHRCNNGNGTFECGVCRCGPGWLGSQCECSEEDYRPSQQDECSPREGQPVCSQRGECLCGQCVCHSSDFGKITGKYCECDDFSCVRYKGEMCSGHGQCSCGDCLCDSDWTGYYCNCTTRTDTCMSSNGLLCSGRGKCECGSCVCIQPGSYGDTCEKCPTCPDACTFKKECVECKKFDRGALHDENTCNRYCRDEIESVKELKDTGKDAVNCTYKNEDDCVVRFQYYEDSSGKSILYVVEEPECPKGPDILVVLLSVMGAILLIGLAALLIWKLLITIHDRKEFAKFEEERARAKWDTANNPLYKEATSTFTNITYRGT
Protocol: In Vitro Human Platelet Aggregation Assay
Assay type: cell-based
Condition Set: human PRP; read-out: Human Platelet Aggregation IC50
Test Readout: IC50 (nM)
Write it as a number; the unit nM goes unstated.

Specify reported IC50 for the substance shown: cyclo-S-acetyl-dTyr--Arg--Gly--Asp--Cys--Tyr--Arg--NH2 [7/43]
350

---

System Name: GP IIb IIIa (Homo sapiens, UniProt P05106+P08514)
Protocol: Fibrinogen-GP IIb IIIa Receptor ELISA Binding Assay
Set-up: from tissue; host or cells: outdated human platelets
Condition Set: purified human platelet GP IIb IIIa, fibrinogen-coated plates; read-out: ELISA IC50 Fibrinogen GPIIb IIIa
Where a SMILES comes first, the peptide text is derived from it. Bridges are numbered along the chain shown (N, C = ends). [ ]: non-standard residue; d: D form. The star is where a group is joined. NH(CH2)4NH2 = NCCCCN*
Test Readout: pIC50
The read-out pIC50 is expressed as -log10 of concentration in moles per litre.

Compound	Recorded Result
N=C(N)NCCC[C@@H]1NC(=O)[C@@H](Cc2ccc(O)cc2)NC(=O)CSC[C@@H](C(=O)N[C@H](CCCCN)C(N)=O)NC(=O)[C@H](CC(=O)O)NC(=O)CNC1=O [7/4] ({CH2CO}-[dY]RGDC[dK]-NH2; thioether N-5)	8.08

Specify reported pIC50 for the compound shown: N=C(N)NCCC[C@H](NC(=O)[C@H](Cc1ccc(O)cc1)NC(=O)[C@@H]1CSCC(=O)N[C@H](Cc2ccc(O)cc2)C(=O)N[C@@H](CCCNC(=N)N)C(=O)NCC(=O)N[C@@H](CC(=O)O)C(=O)N1)C(N)=O [7/7] ({CH2CO}-[dY]RGDCYR-NH2; thioether N-5)
8.05

Specify reported pIC50 for the compound shown: N=C(N)NCCC[C@@H]1NC(=O)[C@@H](Cc2ccc(O)cc2)NC(=O)CSC[C@@H](C(=O)NCCCCN)NC(=O)[C@H](CC(=O)O)NC(=O)CNC1=O [8/12] ({CH2CO}-[dY]RGDC-{NH(CH2)4NH2}; thioether N-5)
8.00

Specify reported pIC50 for the compound shown: N=C(N)NCCC[C@@H]1NC(=O)[C@@H](Cc2ccc(O)cc2)NC(=O)CSC[C@@H](C(=O)N[C@@H](CCC(N)=O)C(N)=O)NC(=O)[C@H](CC(=O)O)NC(=O)CNC1=O [7/27] ({CH2CO}-[dY]RGDCQ-NH2; thioether N-5)
8.51
